Molecular target: integrase (Human immunodeficiency virus type 1 group M subtype B)
Construct: Each reaction (40 ul) contains 30 nM substrate DNA ad 400 ng integrase
Test: HIV integrase 3′ processing/strand transfer assay (IC50)
Type: biochemical
reportedEndpoint: IC50

[[record]]
molecule = "Cc1ccc2nc(C(=O)NCc3ccc(Cl)c(Cl)c3)c(O)c(=O)n2c1 [7-Me, CONHCH2 (3,4-ClPh)]"
testvalue = "1 to 1000 nM"

[[record]]
molecule = "Cc1ccc2nc(C(=O)NCc3ccc(F)cc3)c(O)c(=O)n2c1 [7-Me, CONHCH2 (4F-Ph)]"
testvalue = "1000 to 10000 nM"

[[record]]
molecule = "O=C(NCc1ccc(F)cc1)c1nc2ccc(Br)cn2c(=O)c1O [7-Br, CONHCH2 (4F-Ph)]"
testvalue = "1000 to 10000 nM"

